biological target: UniProtKB O60674; conditions: read-out: JAK2 IC50
pIC50: −log10 of the molar value.
Respond with y for pIC50 values of 8 and above, n for values below.

Smiles Record | Classification
CN1CCN(c2cccc(Nc3nc4c(NCc5ccc(F)cc5)cccn4n3)c2)CC1 | n
COc1cccc(CNc2cccn3nc(Nc4ccnc(C)c4)nc23)c1 | n
CS(=O)(=O)c1ccc(-c2cccn3nc(Nc4cccc(CN5CCOCC5)c4)nc23)cc1 | y

From here, focus on the item given below.
Hi team, for COc1ccccc1CNc1cccn2nc(Nc3cccc(N4CCN(C)CC4)c3)nc12 , is the recorded pIC50 at or above 8?
n

====

IC50 reference
biological target: human FAK (Homo sapiens (Human), UniProt Q05397); conditions: read-out: FAK IC50
Sequence (Q05397 whole entry): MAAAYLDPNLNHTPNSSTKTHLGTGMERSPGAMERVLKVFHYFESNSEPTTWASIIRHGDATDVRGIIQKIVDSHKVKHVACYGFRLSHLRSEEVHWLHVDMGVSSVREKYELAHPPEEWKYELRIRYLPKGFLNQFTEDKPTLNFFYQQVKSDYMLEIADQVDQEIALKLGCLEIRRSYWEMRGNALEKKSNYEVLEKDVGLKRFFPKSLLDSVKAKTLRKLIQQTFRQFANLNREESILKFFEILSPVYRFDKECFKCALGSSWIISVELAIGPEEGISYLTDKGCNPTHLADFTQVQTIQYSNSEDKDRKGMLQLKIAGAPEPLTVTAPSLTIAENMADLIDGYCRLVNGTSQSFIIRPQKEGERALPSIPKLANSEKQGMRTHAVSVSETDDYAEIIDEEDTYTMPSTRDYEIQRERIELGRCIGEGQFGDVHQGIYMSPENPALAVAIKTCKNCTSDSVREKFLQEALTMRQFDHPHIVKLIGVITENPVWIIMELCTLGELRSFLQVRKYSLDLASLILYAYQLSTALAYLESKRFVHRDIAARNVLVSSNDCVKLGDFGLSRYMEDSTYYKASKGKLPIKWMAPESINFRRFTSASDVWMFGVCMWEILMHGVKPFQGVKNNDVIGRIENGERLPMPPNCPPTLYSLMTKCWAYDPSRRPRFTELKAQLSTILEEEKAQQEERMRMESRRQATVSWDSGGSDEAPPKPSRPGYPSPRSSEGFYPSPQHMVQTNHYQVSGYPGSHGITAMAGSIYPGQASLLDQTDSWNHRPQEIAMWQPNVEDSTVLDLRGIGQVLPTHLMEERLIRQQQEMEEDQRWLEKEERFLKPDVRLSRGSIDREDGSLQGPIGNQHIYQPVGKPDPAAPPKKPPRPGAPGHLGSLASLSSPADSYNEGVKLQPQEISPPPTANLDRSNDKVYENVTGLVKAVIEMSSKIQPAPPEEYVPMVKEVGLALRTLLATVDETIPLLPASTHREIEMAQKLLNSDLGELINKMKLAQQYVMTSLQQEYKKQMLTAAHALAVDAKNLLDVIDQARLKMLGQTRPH
State just the number; it will be interpreted in nM.

// worked examples, IC50 included
Smiles Record | IC50 / nM
CN(c1ncccc1CNc1cccn2nc(Nc3ccc(S(C)(=O)=O)cc3)nc12)S(C)(=O)=O | 752
c1ccc(-c2cccn3nc(Nc4ccc5c(c4)CCNCC5)nc23)c(OCC2CC2)c1 | 2790
CN(c1ncccc1CNc1cccn2nc(Nc3ccc(OCCN4CCCC4)cc3)nc12)S(C)(=O)=O | 59.7

Please examine the following record next.
Given the entry CCCOc1ccc(Cl)cc1-c1cccn2nc(Nc3ccc4c(c3)CCNCC4)nc12 , report its measured IC50.
1050

====

target: UniProtKB Q05397; settings: read-out: FAK IC50
pIC50: −log10 of the molar value.
Respond with 1 for pIC50 values of 6 and above, 0 for values below.

Smiles Record | Classification
CC(C)COc1ccc(C(F)(F)F)cc1-c1cccn2nc(Nc3ccc4c(c3)CCN(CC(=O)N(C)C)CC4)nc12 | 0
CN1CCC(c2ccc(Nc3nc4c(NCc5cccc(S(C)(=O)=O)c5)cccn4n3)cc2)CC1 | 0
CS(=O)(=O)c1cccc(-c2cccn3nc(Nc4ccc(OCCN5CCCC5)cc4)nc23)c1 | 1

From here, focus on the item given below.
Hi team, for CN1CCN(c2cccc(Nc3nc4c(-c5ccc(S(C)(=O)=O)cc5)cccn4n3)c2)C(=O)C1 , is the recorded pIC50 at or above 6?
0

====

biological target: human FAK (Homo sapiens (Human), UniProt Q05397); conditions: read-out: FAK IC50
Property Label: pIC50
// pIC50 here means minus log10 of the molar concentration (mol/L)

Compound | pIC50
CN1CCN(c2ccc(Nc3nc4c(NCc5cccc(S(C)(=O)=O)c5)cccn4n3)cc2)CC1 [Example 160] | 5.00
CN1CCN(c2cccc(Nc3nc4c(-c5ccc(N6CCC(N7CCN(C)CC7)CC6)cc5)cccn4n3)c2)CC1 [Example 206] | 5.52
CS(=O)(=O)c1ccc(-c2cccn3nc(Nc4ccc5c(c4)CCC(N4CCOCC4)CC5)nc23)cc1 (stereo not shown) [Example 145] | 6.17

Please examine the following record next.
Given the entry CN(c1ccccc1CNc1cccn2nc(Nc3ccc4cnccc4c3)nc12)S(C)(=O)=O [Example 201] , report its measured pIC50.
6.78

====

target: UniProtKB Q05397; settings: read-out: FAK IC50
Property Label: log10 IC50 (log10 of the value in nM)
Hi team, quick reminder: these entries are log10 of IC50 (nM).

// worked examples, log10 IC50 included
Smiles Record | Experimental Value
CS(=O)(=O)c1ccccc1CNc1cccn2nc(Nc3ccc(OCCN4CCCC4)cc3)nc12 | 1.99
COc1ccc(C(F)(F)F)cc1-c1cccc2nc(Nc3ccc4c(c3)CCN(CCSC)CC4)nn12 | 2.13
FC(F)COc1ccc(C(F)F)cc1-c1cccn2nc(Nc3ccc4c(c3)CCNCC4)nc12 | 3.03
CN(C)C(=O)CN1CCc2ccc(Nc3nc4c(-c5cc(F)ccc5OCC(F)F)cccn4n3)cc2CC1 | 3.10
COc1cc(F)ccc1-c1cccn2nc(Nc3ccc4c(c3)CCN(CC(=O)N(C)C)CC4)nc12 | 3.48
COc1ccc(Nc2nc3c(NCc4ccccc4OC)cccn3n2)cn1 | 3.48

For UniProtKB Q05397, provide log10 IC50 of FC(F)COc1ccccc1-c1cccn2nc(Nc3ccc4c(c3)CCNCC4)nc12 please.
3.28

For UniProtKB Q05397, provide log10 IC50 of CN1CCN(c2cccc(Nc3nc4c(OCc5cccc(Cl)c5)cccn4n3)c2)CC1 please.
3.20

For UniProtKB Q05397, provide log10 IC50 of CS(=O)(=O)c1ccc(-c2cccn3nc(Nc4cccc(C5CCNCC5)c4)nc23)cc1 please.
3.00

For UniProtKB Q05397, provide log10 IC50 of CN1CCN(c2ccc(Nc3nc4cccc(-c5ccc(CN6CCS(=O)(=O)CC6)cc5)n4n3)cc2)CC1 please.
2.46

====

target: UniProtKB O60674; conditions: read-out: JAK2 IC50
Property Label: IC50 (nM)
State just the number; it will be interpreted in nM.

For UniProtKB O60674, provide IC50 of COc1ccc(CNc2cccn3nc(Nc4ccc(N5CCN(C)CC5)cc4)nc23)cc1 please.
3020

====

IC50 reference
molecular target: human JAK2 (Homo sapiens (Human), UniProt O60674); details: read-out: JAK2 IC50
Sequence (O60674 815-1132): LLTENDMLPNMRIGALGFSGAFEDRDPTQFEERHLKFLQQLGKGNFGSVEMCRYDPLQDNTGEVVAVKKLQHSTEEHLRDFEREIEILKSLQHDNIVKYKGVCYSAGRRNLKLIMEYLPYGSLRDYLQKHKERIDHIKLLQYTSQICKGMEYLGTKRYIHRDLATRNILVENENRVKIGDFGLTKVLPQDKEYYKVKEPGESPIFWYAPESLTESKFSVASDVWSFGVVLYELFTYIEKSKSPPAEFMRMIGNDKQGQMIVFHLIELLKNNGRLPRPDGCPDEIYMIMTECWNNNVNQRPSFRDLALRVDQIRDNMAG
State just the number; it will be interpreted in nM.

Given the entry CC(C)(C)OC(=O)N1CCN(c2cccc(Nc3nc4c(-c5ccc(S(C)(=O)=O)cc5)cccn4n3)c2)CC1 , report its measured IC50.
3.72

====

IC50 reference
biological target: UniProtKB Q05397; conditions: read-out: FAK IC50
State just the number; it will be interpreted in nM.

// worked examples, IC50 included
Smiles Record | Units Symbol | Experimental Value
CN1CCN(c2ccc(Nc3nc4c(NCc5cccnc5)cccn4n3)cc2)CC1 | nM | 6500
COc1ccc(C(F)(F)F)cc1-c1cccn2nc(Nc3cccc(N4CCN(C)CC4)c3)nc12 | nM | 1220

Given the entry COc1ccc(C(F)(F)F)cc1-c1cccn2nc(Nc3ccc4c(c3)CCNC4)nc12 , report its measured IC50.
778

Given the entry c1cncc(CNc2cccn3nc(Nc4ccc(OCCN5CCCC5)cc4)nc23)c1 , report its measured IC50.
10000

====

pIC50 reference
biological target: human JAK2 (Homo sapiens (Human), UniProt O60674); conditions: read-out: JAK2 IC50
// pIC50 here means minus log10 of the molar concentration (mol/L)

// worked examples, pIC50 included
Compound | Experimental Value
CC(C)(C)OC(=O)N1CCN(c2ccc(Nc3nc4cccc(-c5ccccc5)n4n3)cc2)CC1 [Example 77] | 8.18
COc1ccccc1CNc1cccn2nc(Nc3ccnc(C)c3)nc12 [Example 404] | 7.61
C[C@@H](O)CN1CCN(c2cccc(Nc3nc4c(-c5ccc(S(C)(=O)=O)cc5)cccn4n3)c2)CC1 [Example 143] | 8.95
COc1ncccc1-c1cccn2nc(Nc3ccc(C4CCN(C(=O)OC(C)(C)C)CC4)cc3)nc12 [Example 271] | 6.17
COc1ccc(C(F)(F)F)cc1-c1cccc2nc(Nc3ccc4c(c3)CCN(CC(=O)N(C)C)CC4)nn12 [Example 237] | 7.27

Given the entry CS(=O)(=O)c1ccc(-c2cccc3nc(Nc4ccc(N5CCOCC5)cc4)nn23)cc1 [Example 12] , report its measured pIC50.
9.15

Given the entry CN1CCN(c2cccc(Nc3nc4cccc(-c5ccc(CN6CCS(=O)(=O)CC6)cc5)n4n3)c2)CC1 [Example 71] , report its measured pIC50.
9.10

Given the entry CC(C)(C)OC(=O)N1CCc2ccc(Nc3nc4c(-c5cccc6c5OC(F)(F)O6)cccn4n3)cc2CC1 [Example 243] , report its measured pIC50.
5.67

Given the entry CN1CCC(c2ccc(Nc3nc4c(NCc5ccccc5S(C)(=O)=O)cccn4n3)cc2)CC1 [Example 140] , report its measured pIC50.
7.65

Given the entry CP(C)(=O)c1ccc(-c2cccn3nc(Nc4cccc(C5CCN(CCS(C)(=O)=O)CC5)c4)nc23)cc1 [Example 203] , report its measured pIC50.
6.78

Given the entry CS(=O)(=O)c1ccccc1Nc1cccn2nc(Nc3ccc(OCCN4CCCC4)cc3)nc12 [Example 126] , report its measured pIC50.
7.84

====

target: human FAK (Homo sapiens (Human), UniProt Q05397); conditions: read-out: FAK IC50
Property Label: log10 IC50 (log10 of the value in nM)
Hi team, quick reminder: these entries are log10 of IC50 (nM).

Given the entry CN(Cc1cccc(-c2cccn3nc(Nc4ccc(OCCN5CCCC5)cc4)nc23)c1)S(C)(=O)=O [Example 177] , report its measured log10 IC50.
3.48

Given the entry CN1CCN(Cc2cccc(Nc3nc4c(-c5ccc(S(C)(=O)=O)cc5)cccn4n3)c2)CC1 [Example 116] , report its measured log10 IC50.
3.48

Given the entry CS(=O)(=O)c1ccc(-c2cccc3nc(Nc4ccc(N5CCOCC5)cc4)nn23)cc1 [Example 12] , report its measured log10 IC50.
2.64

Given the entry CN1CCN(c2cccc(Nc3nc4c(NCc5cccnc5)cccn4n3)c2)CC1 [Example 153] , report its measured log10 IC50.
3.81

Given the entry COc1cc(Cl)ccc1-c1cccn2nc(Nc3ccc4c(c3)CCN(CC(=O)N(C)C)C4)nc12 [Example 331] , report its measured log10 IC50.
3.81

Given the entry CN(c1ncccc1CNc1cccn2nc(Nc3cccc(S(C)(=O)=O)c3)nc12)S(C)(=O)=O [Example 135] , report its measured log10 IC50.
2.33

Given the entry COc1ccc(Nc2nc3c(-c4cnn(S(C)(=O)=O)c4)cccn3n2)cc1 [Example 42] , report its measured log10 IC50.
2.71

Given the entry COc1ccc(Nc2nc3cccc(-c4ccc(CN5CCS(=O)(=O)CC5)cc4)n3n2)cc1 [Example 95] , report its measured log10 IC50.
3.30

Each recorded value in this set is attributed to patent US8501936B2.
